Consider the following binders and their measured OD450 nm readings.
tgt: monkey GPC3-His protein (monkey)
assay-text: ELISA, monkey GPC3-His coated; antibody 0.11 nM
Write the number on its own, no unit after it.

Worked cases, answers included:
Reported OD450 nm for hAb005LH3L1 (antibody, human IgG1, V domains shown) VH: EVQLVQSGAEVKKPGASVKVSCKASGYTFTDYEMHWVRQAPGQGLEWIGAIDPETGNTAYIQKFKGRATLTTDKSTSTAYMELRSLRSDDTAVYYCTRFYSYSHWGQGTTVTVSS VL: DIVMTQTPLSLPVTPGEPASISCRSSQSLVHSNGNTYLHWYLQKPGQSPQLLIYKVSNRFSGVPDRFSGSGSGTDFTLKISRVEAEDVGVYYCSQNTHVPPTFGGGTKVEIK : what is it? 0.997

And hAb006LH3L1 (antibody, human IgG1, V domains shown) VH: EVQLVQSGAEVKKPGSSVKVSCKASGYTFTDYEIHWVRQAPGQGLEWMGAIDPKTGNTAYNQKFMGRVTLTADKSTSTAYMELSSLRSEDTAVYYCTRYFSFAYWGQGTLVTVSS VL: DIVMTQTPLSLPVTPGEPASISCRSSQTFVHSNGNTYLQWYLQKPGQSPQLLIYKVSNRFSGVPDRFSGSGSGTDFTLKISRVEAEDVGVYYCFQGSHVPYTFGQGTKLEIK ? 1.75

Continuing:
Reported OD450 nm for hAb003LH3L1a (antibody, human IgG1, V domains shown) VH: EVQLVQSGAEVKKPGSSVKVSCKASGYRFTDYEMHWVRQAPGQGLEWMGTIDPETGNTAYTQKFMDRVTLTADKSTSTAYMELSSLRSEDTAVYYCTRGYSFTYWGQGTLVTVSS VL: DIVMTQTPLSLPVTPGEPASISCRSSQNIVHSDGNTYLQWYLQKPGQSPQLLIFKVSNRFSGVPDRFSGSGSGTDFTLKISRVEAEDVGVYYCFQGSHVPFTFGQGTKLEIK : what is it? 1.59
